Provenance of the data: ChEMBL document CHEMBL1139157

- procedure.details: Drug level in rat plasma at 5 mg/kg, po after 1 hr
- Assay type: ADME, organism-based
- Set-up: dose 5 mg/kg, route oral
I'd be grateful if you could share measured concentration at 1 h for these entries.
Respond with the bare value in nM.

[Q] Return reported concentration at 1 h; argument: [O-][S+](c1ccccc1)c1ccc(/C=C/c2ccc(F)cc2F)nc1 (stereo in doubt; 30)
[A] 230

[Q] Return reported concentration at 1 h; argument: O=S(=O)(c1ccccc1)c1ccc(/C=C/c2ccc(F)cc2F)nc1
[A] 80

====

I'd be grateful if you could share measured concentration at 1 h for these entries.
- procedure.details: Drug level in rat brain at 5 mg/kg, po after 1 hr
- Type: ADME, organism-based
- Set-up: dose 5 mg/kg, route oral
- run.conditions: read-out: Drug uptake
Respond with the bare value in nM.

[Q] Return reported concentration at 1 h; argument: O=S(=O)(c1ccccc1)c1ccc(/C=C/c2ccc(F)cc2F)nc1
[A] 180

[Q] Return reported concentration at 1 h; argument: [O-][S+](c1ccccc1)c1ccc(/C=C/c2ccc(F)cc2F)nc1 (stereo in doubt; 30)
[A] 1070
